molecules and their reported pKi
target: AT2 receptor (Homo sapiens); construct: expressed in transfected cells; host or cells: HEK-293; experiment: HEK-293 cell AT2 receptor binding assay ([125I]-CGP42112 displacement, HEK293-hAT2R)
Sequence (P50052 whole entry): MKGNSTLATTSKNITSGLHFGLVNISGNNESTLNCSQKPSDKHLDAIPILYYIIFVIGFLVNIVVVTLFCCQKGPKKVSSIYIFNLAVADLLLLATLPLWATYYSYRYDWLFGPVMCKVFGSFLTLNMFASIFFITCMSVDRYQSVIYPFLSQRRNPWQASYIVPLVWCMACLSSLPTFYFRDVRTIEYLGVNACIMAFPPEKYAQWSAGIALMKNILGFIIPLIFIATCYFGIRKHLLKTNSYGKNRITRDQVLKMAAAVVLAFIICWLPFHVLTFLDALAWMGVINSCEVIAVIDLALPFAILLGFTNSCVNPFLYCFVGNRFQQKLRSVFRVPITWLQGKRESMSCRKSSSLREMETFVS
pKi: −log10 of the molar value.
MEASUREMENT KIND: pKi

MOLECULE: CCCCc1ccc(S(=O)(=O)NC(=O)OCC(C)C)c(-c2cccc(Cn3cccn3)c2)c1 [9g]
VAL: 6.29
//
MOLECULE: CCCCc1ccc(S(=O)(=O)NC(=O)OC(C)C)c(-c2cccc(Cn3cncn3)c2)c1 [8h]
VAL: 7.08
//
MOLECULE: CCCCOC(=O)NS(=O)(=O)c1ccc(CCCC)cc1-c1cccc(Cn2cccn2)c1 [9f]
VAL: 6.33
//
MOLECULE: CCCCc1ccc(S(=O)(=O)NC(=O)OCC(C)C)c(-c2cccc(Cn3cncn3)c2)c1 [8g]
VAL: 6.46
//
MOLECULE: CCCCC(=O)NS(=O)(=O)c1ccc(CCCC)cc1-c1cccc(Cn2cccn2)c1 [9e]
VAL: 6.00
//
MOLECULE: CCCCOc1ccc(S(=O)(=O)NC(=O)CCCC)c(-c2cccc(Cn3cncn3)c2)c1 [8i]
VAL: 6.70
//
MOLECULE: CC(C)Cc1ccc(S(=O)(=O)NC(=O)OC(C)C)c(-c2cccc(Cn3cccn3)c2)c1 [9d]
VAL: 7.13
//
MOLECULE: CCCCOc1ccc(S(=O)(=O)NC(=O)OCC(C)C)c(-c2cccc(Cn3cncn3)c2)c1 [8k]
VAL: 6.15
//
MOLECULE: CCCCOC(=O)NS(=O)(=O)c1ccc(OCCCC)cc1-c1cccc(Cn2cncn2)c1 [8j]
VAL: 6.21

// data source = paper PMC9458978
